Molecular target: dihydropyridine receptor
Assay: inhibition of [3H]-nitrendipine binding in rat brain homogenate
Conditions: read-out: IC50 (index of dihydropyridine receptor affinity; inhibition of [3H]-nitrendipine binding)
Source text: *Index of dihydropyridine receptor affinity: IC50 for inhibition of [^3 H]--nitrendipine binding in rat brain homogenate.
Rule: measured IC50 below 200 nM gets yes; anything equal to or greater than 200 nM gets no.

Record excerpt, results attached:
compound	labelClass
CCOC(=O)C1=C(C)N/C(=C\C(=O)c2ccc(C)cc2)[C@@H](C(=O)OCC)[C@@H]1c1ccccc1C(F)(F)F (relative stereo)	no
CCOC(=O)C1=C(C)N/C(=C\C(=O)c2ccccc2)C(C(=O)OCC)C1c1ccccn1 (racemic)	yes
CCOC(=O)C1=C(C)N/C(=C\C(=O)c2ccccc2)[C@@H](C(=O)OCC)[C@@H]1c1ccccc1C(F)(F)F (relative stereo)	no
CCOC(=O)C1=C(C)N/C(=C\C(=O)c2ccncc2)[C@@H](C(=O)OCC)[C@@H]1c1ccccc1C(F)(F)F (relative stereo)	yes
CCOC(=O)C1=C(C)N/C(=C\C(=O)c2ccccc2)[C@@H](C(=O)OCC)[C@@H]1c1cccc(Cl)c1Cl (relative stereo)	yes

API: the following record is the query input.
Is 200 nM strictly greater than the compound's reported IC50? compound: CCOC(=O)C1=C(C)N/C(=C\C(=O)c2ccc(Cl)cc2)[C@@H](C(=O)OCC)[C@@H]1c1ccccc1C(F)(F)F (relative stereo)
yes
